details: in isopropanol, 303.15 K
reported_metric: solubility (mole fraction)
Give the figure by itself; no unit, no explanation.

Query (molecule): CC(C)(C)C(O)/C(=C\c1ccc(Cl)cc1)n1cncn1 (stereo unspecified) ; field requested: solubility (mole fraction)
0.0248

* * *

conditions: in isobutyl acetate, 278.15 K
reported_metric: solubility (mole fraction)
Give the figure by itself; no unit, no explanation.

Query (compound): CC(C)(C)C(O)/C(=C\c1ccc(Cl)cc1)n1cncn1 (stereo unspecified) ; field requested: solubility (mole fraction)
0.00727

* * *

settings: in n-propyl acetate, 293.15 K
reported_metric: solubility (mole fraction)
Give the figure by itself; no unit, no explanation.

Query (compound): CC(C)(C)C(O)/C(=C\c1ccc(Cl)cc1)n1cncn1 (stereo unspecified) ; field requested: solubility (mole fraction)
0.0169

* * *

conditions: in ethylene glycol, 323.15 K
reported_metric: solubility (mole fraction)
Give the figure by itself; no unit, no explanation.

Query (compound): CC(C)(C)C(O)/C(=C\c1ccc(Cl)cc1)n1cncn1 (stereo unspecified) ; field requested: solubility (mole fraction)
0.0025

* * *

conditions: in isobutanol, 318.15 K
reported_metric: solubility (mole fraction)
Give the figure by itself; no unit, no explanation.

Query (molecule): CC(C)(C)C(O)/C(=C\c1ccc(Cl)cc1)n1cncn1 (stereo unspecified) ; field requested: solubility (mole fraction)
0.0425

* * *

conditions: in isopropanol, 298.15 K
reported_metric: solubility (mole fraction)

Query (compound): CC(C)(C)C(O)/C(=C\c1ccc(Cl)cc1)n1cncn1 (stereo unspecified) ; field requested: solubility (mole fraction)
0.0189

* * *

settings: in n-butyl acetate, 278.15 K
reported_metric: solubility (mole fraction)
Give the figure by itself; no unit, no explanation.

Query (compound): CC(C)(C)C(O)/C(=C\c1ccc(Cl)cc1)n1cncn1 (stereo unspecified) ; field requested: solubility (mole fraction)
0.0118

* * *

settings: in n-octanol, 308.15 K
reported_metric: solubility (mole fraction)
Give the figure by itself; no unit, no explanation.

Query (molecule): CC(C)(C)C(O)/C(=C\c1ccc(Cl)cc1)n1cncn1 (stereo unspecified) ; field requested: solubility (mole fraction)
0.0287

* * *

conditions: in n-propyl acetate, 288.15 K
reported_metric: solubility (mole fraction)

Query (molecule): CC(C)(C)C(O)/C(=C\c1ccc(Cl)cc1)n1cncn1 (stereo unspecified) ; field requested: solubility (mole fraction)
0.0147

* * *

conditions: in n-propanol, 323.15 K
reported_metric: solubility (mole fraction)
Give the figure by itself; no unit, no explanation.

Query (molecule): CC(C)(C)C(O)/C(=C\c1ccc(Cl)cc1)n1cncn1 (stereo unspecified) ; field requested: solubility (mole fraction)
0.0497

* * *

settings: in n-propyl acetate, 318.15 K
reported_metric: solubility (mole fraction)

Query (compound): CC(C)(C)C(O)/C(=C\c1ccc(Cl)cc1)n1cncn1 (stereo unspecified) ; field requested: solubility (mole fraction)
0.052

* * *

details: in n-butyl acetate, 318.15 K
reported_metric: solubility (mole fraction)
Give the figure by itself; no unit, no explanation.

Query (molecule): CC(C)(C)C(O)/C(=C\c1ccc(Cl)cc1)n1cncn1 (stereo unspecified) ; field requested: solubility (mole fraction)
0.0364

* * *

details: in water, 293.15 K
reported_metric: solubility (mole fraction)
Give the figure by itself; no unit, no explanation.

Query (molecule): CC(C)(C)C(O)/C(=C\c1ccc(Cl)cc1)n1cncn1 (stereo unspecified) ; field requested: solubility (mole fraction)
2.6e-06

* * *

settings: in isobutanol, 293.15 K
reported_metric: solubility (mole fraction)
Give the figure by itself; no unit, no explanation.

Query (molecule): CC(C)(C)C(O)/C(=C\c1ccc(Cl)cc1)n1cncn1 (stereo unspecified) ; field requested: solubility (mole fraction)
0.0197

* * *

conditions: in isobutanol, 278.15 K
reported_metric: solubility (mole fraction)
Give the figure by itself; no unit, no explanation.

Query (compound): CC(C)(C)C(O)/C(=C\c1ccc(Cl)cc1)n1cncn1 (stereo unspecified) ; field requested: solubility (mole fraction)
0.0157

* * *

conditions: in isopropanol, 318.15 K
reported_metric: solubility (mole fraction)
Give the figure by itself; no unit, no explanation.

Query (compound): CC(C)(C)C(O)/C(=C\c1ccc(Cl)cc1)n1cncn1 (stereo unspecified) ; field requested: solubility (mole fraction)
0.038

* * *

settings: in ethylene glycol, 313.15 K
reported_metric: solubility (mole fraction)

Query (compound): CC(C)(C)C(O)/C(=C\c1ccc(Cl)cc1)n1cncn1 (stereo unspecified) ; field requested: solubility (mole fraction)
0.00202

* * *

settings: in n-propyl acetate, 278.15 K
reported_metric: solubility (mole fraction)
Give the figure by itself; no unit, no explanation.

Query (compound): CC(C)(C)C(O)/C(=C\c1ccc(Cl)cc1)n1cncn1 (stereo unspecified) ; field requested: solubility (mole fraction)
0.0114

* * *

settings: in propylene glycol, 308.15 K
reported_metric: solubility (mole fraction)

Query (compound): CC(C)(C)C(O)/C(=C\c1ccc(Cl)cc1)n1cncn1 (stereo unspecified) ; field requested: solubility (mole fraction)
0.00874

* * *

conditions: in ethyl acetate, 293.15 K
reported_metric: solubility (mole fraction)
Give the figure by itself; no unit, no explanation.

Query (molecule): CC(C)(C)C(O)/C(=C\c1ccc(Cl)cc1)n1cncn1 (stereo unspecified) ; field requested: solubility (mole fraction)
0.0167

* * *

settings: in methyl acetate, 308.15 K
reported_metric: solubility (mole fraction)
Give the figure by itself; no unit, no explanation.

Query (compound): CC(C)(C)C(O)/C(=C\c1ccc(Cl)cc1)n1cncn1 (stereo unspecified) ; field requested: solubility (mole fraction)
0.0214

* * *

details: in ethylene glycol, 288.15 K
reported_metric: solubility (mole fraction)
Give the figure by itself; no unit, no explanation.

Query (compound): CC(C)(C)C(O)/C(=C\c1ccc(Cl)cc1)n1cncn1 (stereo unspecified) ; field requested: solubility (mole fraction)
0.00103

* * *

details: in propylene glycol, 278.15 K
reported_metric: solubility (mole fraction)
Give the figure by itself; no unit, no explanation.

Query (molecule): CC(C)(C)C(O)/C(=C\c1ccc(Cl)cc1)n1cncn1 (stereo unspecified) ; field requested: solubility (mole fraction)
0.00332

* * *

details: in methyl acetate, 313.15 K
reported_metric: solubility (mole fraction)
Give the figure by itself; no unit, no explanation.

Query (compound): CC(C)(C)C(O)/C(=C\c1ccc(Cl)cc1)n1cncn1 (stereo unspecified) ; field requested: solubility (mole fraction)
0.0236

* * *

conditions: in n-propyl acetate, 283.15 K
reported_metric: solubility (mole fraction)
Give the figure by itself; no unit, no explanation.

Query (molecule): CC(C)(C)C(O)/C(=C\c1ccc(Cl)cc1)n1cncn1 (stereo unspecified) ; field requested: solubility (mole fraction)
0.0123

* * *

settings: in propylene glycol, 293.15 K
reported_metric: solubility (mole fraction)

Query (compound): CC(C)(C)C(O)/C(=C\c1ccc(Cl)cc1)n1cncn1 (stereo unspecified) ; field requested: solubility (mole fraction)
0.00483

* * *

conditions: in n-octanol, 288.15 K
reported_metric: solubility (mole fraction)
Give the figure by itself; no unit, no explanation.

Query (compound): CC(C)(C)C(O)/C(=C\c1ccc(Cl)cc1)n1cncn1 (stereo unspecified) ; field requested: solubility (mole fraction)
0.02

* * *

details: in n-butyl acetate, 288.15 K
reported_metric: solubility (mole fraction)
Give the figure by itself; no unit, no explanation.

Query (compound): CC(C)(C)C(O)/C(=C\c1ccc(Cl)cc1)n1cncn1 (stereo unspecified) ; field requested: solubility (mole fraction)
0.0153

* * *

conditions: in isopropanol, 288.15 K
reported_metric: solubility (mole fraction)
Give the figure by itself; no unit, no explanation.

Query (compound): CC(C)(C)C(O)/C(=C\c1ccc(Cl)cc1)n1cncn1 (stereo unspecified) ; field requested: solubility (mole fraction)
0.0141

* * *

conditions: in water, 288.15 K
reported_metric: solubility (mole fraction)
Give the figure by itself; no unit, no explanation.

Query (compound): CC(C)(C)C(O)/C(=C\c1ccc(Cl)cc1)n1cncn1 (stereo unspecified) ; field requested: solubility (mole fraction)
2.4e-06

* * *

conditions: in n-butyl acetate, 308.15 K
reported_metric: solubility (mole fraction)

Query (molecule): CC(C)(C)C(O)/C(=C\c1ccc(Cl)cc1)n1cncn1 (stereo unspecified) ; field requested: solubility (mole fraction)
0.0291

* * *

details: in ethyl acetate, 283.15 K
reported_metric: solubility (mole fraction)
Give the figure by itself; no unit, no explanation.

Query (compound): CC(C)(C)C(O)/C(=C\c1ccc(Cl)cc1)n1cncn1 (stereo unspecified) ; field requested: solubility (mole fraction)
0.0112

* * *

details: in isobutanol, 283.15 K
reported_metric: solubility (mole fraction)
Give the figure by itself; no unit, no explanation.

Query (compound): CC(C)(C)C(O)/C(=C\c1ccc(Cl)cc1)n1cncn1 (stereo unspecified) ; field requested: solubility (mole fraction)
0.0177

* * *

conditions: in isobutanol, 313.15 K
reported_metric: solubility (mole fraction)

Query (compound): CC(C)(C)C(O)/C(=C\c1ccc(Cl)cc1)n1cncn1 (stereo unspecified) ; field requested: solubility (mole fraction)
0.0365
